test: Two-period crossover pharmacokinetics of nalmefene 3 mg IN vs 1.0 mg IM (Example 12); conditions: human, plasma, intramuscular, 1 mg, Median plasma concentration, Treatment B 1.0 mg IM; 6.00 h
METRIC NAME: concentration at 6 h (ng/mL)
Your answer is read as ng/mL, so omit the unit and give the number.

# return recorded concentration at 6 h for input C=C1CC[C@@]2(O)[C@H]3Cc4ccc(O)c5c4[C@@]2(CCN3CC2CC2)[C@H]1O5 0.673

---

assay: Three-treatment crossover pharmacokinetics of IN nalmefene, three dosing regimens (Example 13); details: human, plasma, other: intranasal, 3 mg, […], Min, T1 (3 mg IN, one spray in one nostril); time 0.250
METRIC NAME: concentration at […] (ng/mL)
Your answer is read as ng/mL, so omit the unit and give the number.

# return recorded concentration at […] for input C=C1CC[C@@]2(O)[C@H]3Cc4ccc(O)c5c4[C@@]2(CCN3CC2CC2)[C@H]1O5 1.88

---

test: Two-period crossover pharmacokinetics of nalmefene 3 mg IN vs 1.0 mg IM (Example 12); details: human, plasma, intramuscular, 1 mg, Mean plasma concentration, Treatment B 1.0 mg IM; 2.00 h
METRIC NAME: concentration at 2 h (ng/mL)
Your answer is read as ng/mL, so omit the unit and give the number.

# return recorded concentration at 2 h for input C=C1CC[C@@]2(O)[C@H]3Cc4ccc(O)c5c4[C@@]2(CCN3CC2CC2)[C@H]1O5 0.972

---

assay: Three-treatment crossover pharmacokinetics of IN nalmefene, three dosing regimens (Example 13); conditions: human, plasma, other: intranasal (IN spray), 3 mg, […], Max, T1 (3 mg IN, one spray in one nostril); time 3.00
METRIC NAME: concentration at 3 h (ng/mL)
Your answer is read as ng/mL, so omit the unit and give the number.

# return recorded concentration at 3 h for input C=C1CC[C@@]2(O)[C@H]3Cc4ccc(O)c5c4[C@@]2(CCN3CC2CC2)[C@H]1O5 6.01

---

assay: Three-treatment crossover pharmacokinetics of IN nalmefene, three dosing regimens (Example 13); settings: human, plasma, other: intranasal (IN spray), 3 mg, […], Median, T1 (3 mg IN, one spray in one nostril); time 8.00
METRIC NAME: concentration at 8 h (ng/mL)
Your answer is read as ng/mL, so omit the unit and give the number.

# return recorded concentration at 8 h for input C=C1CC[C@@]2(O)[C@H]3Cc4ccc(O)c5c4[C@@]2(CCN3CC2CC2)[C@H]1O5 1.34

---

test: Three-treatment crossover pharmacokinetics of IN nalmefene, three dosing regimens (Example 13); conditions: human, plasma, other: intranasal (IN) spray, 3 mg, […], Median, T1 (3 mg IN, one spray in one nostril); time 0.125
METRIC NAME: concentration at […] (ng/mL)
Your answer is read as ng/mL, so omit the unit and give the number.

# return recorded concentration at […] for input C=C1CC[C@@]2(O)[C@H]3Cc4ccc(O)c5c4[C@@]2(CCN3CC2CC2)[C@H]1O5 3.65

---

experiment: Three-treatment crossover pharmacokinetics of IN nalmefene, three dosing regimens (Example 13); settings: human, plasma, other: intranasal (IN) spray, 3 mg, […], Median, T1 (3 mg IN, one spray in one nostril); time 0.0833
METRIC NAME: concentration at […] (ng/mL)
Your answer is read as ng/mL, so omit the unit and give the number.

# return recorded concentration at […] for input C=C1CC[C@@]2(O)[C@H]3Cc4ccc(O)c5c4[C@@]2(CCN3CC2CC2)[C@H]1O5 1.29

---

assay: Phase 1 pharmacokinetic evaluation of nalmefene IN with and without Intravail vs IM injection; conditions: human, in vivo, 1.5 mg
METRIC NAME: concentration at 30 h (ng/mL)
Your answer is read as ng/mL, so omit the unit and give the number.

# return recorded concentration at 30 h for input C=C1CC[C@@]2(O)[C@H]3Cc4ccc(O)c5c4[C@@]2(CCN3CC2CC2)[C@H]1O5 0

---

assay: Two-period crossover pharmacokinetics of nalmefene 3 mg IN vs 1.0 mg IM (Example 12); conditions: human, plasma, other: intranasal, 3 mg, AUC0-10 min, GeoMean, Treatment A 3.0 mg IN (Test)
METRIC NAME: AUC(0-t) (ng·h/mL)
Your answer is read as ng·h/mL, so omit the unit and give the number.

# return recorded AUC(0-t) for input C=C1CC[C@@]2(O)[C@H]3Cc4ccc(O)c5c4[C@@]2(CCN3CC2CC2)[C@H]1O5 [Nalmefene] 0.514

---

assay: Three-treatment crossover pharmacokinetics of IN nalmefene, three dosing regimens (Example 13); settings: human, plasma, other: intranasal (IN spray), 6 mg, Vz/F, mean, Treatment C (T3) 6 mg in one nostril
METRIC NAME: Vd/F (L)
Your answer is read as L, so omit the unit and give the number.

# return recorded Vd/F for input C=C1CC[C@@]2(O)[C@H]3Cc4ccc(O)c5c4[C@@]2(CCN3CC2CC2)[C@H]1O5 [Nalmefene] 1190

---

experiment: Two-period crossover pharmacokinetics of nalmefene 3 mg IN vs 1.0 mg IM (Example 12); settings: human, plasma, im, 1 mg, Vz/F, Treatment B: IM 1.0 mg nalmefene hydrochloride; plasma; Mean, n=68
METRIC NAME: Vd/F
Give the value; after it, write the unit.

# return recorded Vd/F for input C=C1CC[C@@]2(O)[C@H]3Cc4ccc(O)c5c4[C@@]2(CCN3CC2CC2)[C@H]1O5 [Nalmefene] 916 L

---

assay: Two-period crossover pharmacokinetics of nalmefene 3 mg IN vs 1.0 mg IM (Example 12); details: human, plasma, other: intranasal (nasal spray), 3 mg, Plasma half-life, 3 mg IN
METRIC NAME: half-life

# return recorded half-life for input C=C1CC[C@@]2(O)[C@H]3Cc4ccc(O)c5c4[C@@]2(CCN3CC2CC2)[C@H]1O5 [Nalmefene] ~11 h

---

assay: Two-period crossover pharmacokinetics of nalmefene 3 mg IN vs 1.0 mg IM (Example 12); conditions: human, plasma, other: intranasal, 3 mg, AUC0-15 min, Treatment A: 3.0 mg nalmefene hydrochloride IN; plasma; Geo. Mean, n 66
METRIC NAME: AUC(0-t) (ng·h/mL)
Your answer is read as ng·h/mL, so omit the unit and give the number.

# return recorded AUC(0-t) for input C=C1CC[C@@]2(O)[C@H]3Cc4ccc(O)c5c4[C@@]2(CCN3CC2CC2)[C@H]1O5 1.2

---

experiment: Two-period crossover pharmacokinetics of nalmefene 3 mg IN vs 1.0 mg IM (Example 12); details: human, plasma, other: intranasal, 3 mg, AUC0-30 min, GeoMean, Treatment A 3.0 mg IN (Test)
METRIC NAME: AUC(0-t) (ng·h/mL)
Your answer is read as ng·h/mL, so omit the unit and give the number.

# return recorded AUC(0-t) for input C=C1CC[C@@]2(O)[C@H]3Cc4ccc(O)c5c4[C@@]2(CCN3CC2CC2)[C@H]1O5 3.04

---

test: Two-period crossover pharmacokinetics of nalmefene 3 mg IN vs 1.0 mg IM (Example 12); settings: human, plasma, other: intranasal, 3 mg, Median plasma concentration, Treatment A 3.0 mg IN; 8.00 h
METRIC NAME: concentration at 8 h
Give the value; after it, write the unit.

# return recorded concentration at 8 h for input C=C1CC[C@@]2(O)[C@H]3Cc4ccc(O)c5c4[C@@]2(CCN3CC2CC2)[C@H]1O5 [Nalmefene] 1.18 ng/mL

---

assay: Three-treatment crossover pharmacokinetics of IN nalmefene, three dosing regimens (Example 13); settings: human, plasma, other: intranasal (IN) spray, 3 mg, […], Max, T1 (3 mg IN, one spray in one nostril); time 0.125
METRIC NAME: concentration at […]
Give the value; after it, write the unit.

# return recorded concentration at […] for input C=C1CC[C@@]2(O)[C@H]3Cc4ccc(O)c5c4[C@@]2(CCN3CC2CC2)[C@H]1O5 16.9 ng/mL

---

assay: Two-period crossover pharmacokinetics of nalmefene 3 mg IN vs 1.0 mg IM (Example 12); conditions: human, plasma, im, 1 mg, AUCinf, Treatment B: IM 1.0 mg nalmefene hydrochloride; plasma; Geo. Mean, n=68
METRIC NAME: AUC(0-inf) (ng·h/mL)
Your answer is read as ng·h/mL, so omit the unit and give the number.

# return recorded AUC(0-inf) for input C=C1CC[C@@]2(O)[C@H]3Cc4ccc(O)c5c4[C@@]2(CCN3CC2CC2)[C@H]1O5 16.8

---

test: Three-treatment crossover pharmacokinetics of IN nalmefene, three dosing regimens (Example 13); conditions: human, plasma, other: intranasal (IN spray), 6 mg, […], Mean; Time 18.0; T3: 6 mg nalmefene HCl IN, two 0.1 mL sprays in one nostril
METRIC NAME: concentration at 18 h (ng/mL)
Your answer is read as ng/mL, so omit the unit and give the number.

# return recorded concentration at 18 h for input C=C1CC[C@@]2(O)[C@H]3Cc4ccc(O)c5c4[C@@]2(CCN3CC2CC2)[C@H]1O5 1.11
